tested on: brain cancer cell (glioma) U118; assay: Brain cancer (glioma) U118 cell growth; assay type: cell-based; details: 72 hours of incubation
pIC50: −log10 of the molar value.
measured quantity: pIC50

> print(dat)
                                    compound                  subject.of.test  data.value
 1  CCC=CCC=CCC=CCC=CCC=CCCC(OC)C(=O)OC (stereo not shown)  brain cancer cell (glioma) U118        3.36
 2  CCCCCC=CCC=CCCCCCCC(OP(=O)(OCC)OCC)C(=O)OCC (stereo not shown)  brain cancer cell (glioma) U118        3.59
 3  CCCCCC=CCC=CCCCCCCC(C)C(=O)[O-].[Na+] (stereo not shown)  brain cancer cell (glioma) U118        3.64
 4  CCCCCC=CCC=CCC=CCC=CCCC(O)C(=O)OC (stereo not shown)  brain cancer cell (glioma) U118        3.51
 5  CC/C=C\C/C=C\C/C=C\C/C=C\C/C=C\C/C=C\CC(O)C(=O)[O-].[Na+] (stereo not shown)  brain cancer cell (glioma) U118        3.71
 6  CCC=CCC=CCC=CCC=CCC=CCCC(O)C(=O)[O-].[Na+] (stereo not shown)  brain cancer cell (glioma) U118        3.41
 7  CCCCCC=CCC=CCCCCCCC(O)C(=O)O (stereo not shown) [182A1, 2-hydroxy-9,12-octadecadienoic acid]  brain cancer cell (glioma) U118        3.71
 8  CCC=CCC=CCC=CCC=CCC=CCCC(O)C(=O)O (stereo not shown) [205A1]  brain cancer cell (glioma) U118        3.40
 9  CCC=CCC=CCC=CCCCCCCC(C)C(=O)[O-].[Na+] (stereo not shown)  brain cancer cell (glioma) U118        3.64
10  CCCCCC=CCC=CCC=CCCCC(C)C(=O)OC (stereo not shown)  brain cancer cell (glioma) U118        3.39
11  CCCCCC=CCC=CCCCCCCC(OC=O)C(=O)OC (stereo not shown)  brain cancer cell (glioma) U118        3.67
12  CCC=CCC=CCC=CCC=CCC=CCC=CCC(CO)C(=O)OCC (stereo not shown)  brain cancer cell (glioma) U118        3.60
13  CCCCCC=CCC=CCCCCCCC(O)C(=O)[O-].[Na+] (stereo not shown)  brain cancer cell (glioma) U118        3.70
14  CCCCCC=CCC=CCC=CCCCC(O)C(=O)O (stereo not shown) [183C2]  brain cancer cell (glioma) U118        3.42
15  CCC=CCC=CCC=CCC=CCC=CCCC(F)C(=O)OCC (stereo not shown)  brain cancer cell (glioma) U118        3.37
16  CCCCCC=CCC=CCC=CCCCC(CO)C(=O)O (stereo not shown)  brain cancer cell (glioma) U118        3.41
17  CCCCCC=CCC=CCC=CCCCC(F)C(=O)OCC (stereo not shown)  brain cancer cell (glioma) U118        3.37
18  CCCCCC=CCC=CCCCCCCC(OC)C(=O)OC (stereo not shown)  brain cancer cell (glioma) U118        3.57
19  CCCCCC=CCC=CCC=CCCCC(O)C(=O)OC (stereo not shown)  brain cancer cell (glioma) U118        3.41
20  CCC=CCC=CCC=CCC=CCC=CCC=CCC(C)C(=O)OC (stereo not shown)  brain cancer cell (glioma) U118        3.51
21  CCC=CCC=CCC=CCC=CCC=CCC=CCC(O)C(=O)OC (stereo not shown)  brain cancer cell (glioma) U118        3.62
22  CCCCCC=CCC=CCCCCCCC(OC)C(=O)O (stereo not shown)  brain cancer cell (glioma) U118        3.69

Ref: patent US11253497B2
